TESTED_SYSTEM: PI3K p110β/p85α (human) (Homo sapiens (Human), UniProt P42338)
Sequence (P42338 whole entry): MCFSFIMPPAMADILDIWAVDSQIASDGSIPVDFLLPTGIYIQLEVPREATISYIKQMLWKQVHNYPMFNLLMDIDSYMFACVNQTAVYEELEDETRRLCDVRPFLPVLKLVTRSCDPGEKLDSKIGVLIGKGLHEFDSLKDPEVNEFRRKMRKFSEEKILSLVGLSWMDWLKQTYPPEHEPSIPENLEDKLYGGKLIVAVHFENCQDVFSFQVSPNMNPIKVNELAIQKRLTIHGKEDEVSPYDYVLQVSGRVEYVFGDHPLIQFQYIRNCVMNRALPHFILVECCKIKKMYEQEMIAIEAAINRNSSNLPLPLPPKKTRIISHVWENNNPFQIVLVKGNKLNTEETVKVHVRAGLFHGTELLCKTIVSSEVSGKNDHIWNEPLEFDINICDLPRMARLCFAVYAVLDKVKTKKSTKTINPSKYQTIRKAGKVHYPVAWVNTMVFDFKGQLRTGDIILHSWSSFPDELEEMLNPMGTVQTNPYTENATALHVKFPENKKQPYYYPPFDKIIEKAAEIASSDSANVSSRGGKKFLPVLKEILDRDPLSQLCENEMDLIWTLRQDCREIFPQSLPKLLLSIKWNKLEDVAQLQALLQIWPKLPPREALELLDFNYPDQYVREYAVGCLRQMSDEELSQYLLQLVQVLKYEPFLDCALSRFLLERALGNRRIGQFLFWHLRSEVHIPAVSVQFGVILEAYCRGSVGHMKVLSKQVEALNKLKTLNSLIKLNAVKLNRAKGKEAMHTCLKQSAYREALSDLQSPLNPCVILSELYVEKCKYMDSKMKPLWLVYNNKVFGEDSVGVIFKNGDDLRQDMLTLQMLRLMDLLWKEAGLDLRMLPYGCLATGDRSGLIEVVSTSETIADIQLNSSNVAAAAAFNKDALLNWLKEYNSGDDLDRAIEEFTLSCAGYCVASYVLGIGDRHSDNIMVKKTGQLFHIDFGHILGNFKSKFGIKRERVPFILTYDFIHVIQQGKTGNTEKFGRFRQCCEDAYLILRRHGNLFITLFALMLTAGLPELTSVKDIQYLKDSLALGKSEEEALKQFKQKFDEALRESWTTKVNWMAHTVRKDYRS
Sequence (P27986 whole entry partner): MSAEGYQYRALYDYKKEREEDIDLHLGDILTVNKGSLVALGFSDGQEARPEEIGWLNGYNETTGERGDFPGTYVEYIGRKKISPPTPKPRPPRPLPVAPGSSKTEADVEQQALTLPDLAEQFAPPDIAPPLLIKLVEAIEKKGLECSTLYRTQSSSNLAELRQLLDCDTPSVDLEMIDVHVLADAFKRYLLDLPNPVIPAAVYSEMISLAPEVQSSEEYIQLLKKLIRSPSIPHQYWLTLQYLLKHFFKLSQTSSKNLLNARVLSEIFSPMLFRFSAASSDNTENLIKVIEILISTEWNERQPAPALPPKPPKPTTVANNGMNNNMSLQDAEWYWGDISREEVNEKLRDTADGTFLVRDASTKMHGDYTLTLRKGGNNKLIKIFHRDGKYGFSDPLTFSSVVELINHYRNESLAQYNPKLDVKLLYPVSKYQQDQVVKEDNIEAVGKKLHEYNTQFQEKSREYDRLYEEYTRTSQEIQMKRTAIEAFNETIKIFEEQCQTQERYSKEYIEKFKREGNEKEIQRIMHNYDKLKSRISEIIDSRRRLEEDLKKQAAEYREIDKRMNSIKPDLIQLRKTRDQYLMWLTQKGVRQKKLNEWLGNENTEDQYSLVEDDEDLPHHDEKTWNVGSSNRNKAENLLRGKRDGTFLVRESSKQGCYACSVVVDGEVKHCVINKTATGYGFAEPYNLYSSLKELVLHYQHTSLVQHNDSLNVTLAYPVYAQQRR
METHOD_DESCRIPTION: PI3K p110β/p85α (human), non-radioactive assay (HTRF)
Format: biochemical
MEASUREMENT_PARAMETERS: read-out: IC50 (PI3Kbeta)
EXPERIMENTAL_READOUT: IC50

INSERT INTO results (compound, result) VALUES
  ('COc1cc2ncc3c(c2cc1-c1cn(C)nc1C)n(-c1cn(C)nc1C)c(=O)n3C [Compound Example 10]', '> 30 µM'),
  ('COc1cc2ncc3c(c2cc1-c1cnn(C)c1)n(-c1ncc(F)cn1)c(=O)n3C [Compound Example 36]', '> 30 µM'),
  ('COc1cc2ncc3c(c2cc1-c1cnn(C)c1)n(-c1ccncc1OC)c(=O)n3C [Compound Example 28]', '> 30 µM'),
  ('COc1cc2ncc3c(c2cc1-c1cc(C)[nH]n1)n(-c1ncccc1F)c(=O)n3C [Compound Example 29]', '> 30 µM'),
  ('CCn1cc(-c2cc3c(cc2OC)ncc2c3n(-c3cn(C)nc3C)c(=O)n2C)cn1 [Compound Example 21]', '> 30 µM'),
  ('COc1cc2ncc3c(c2cc1-c1cnn(C)c1)n(-c1cn(C)cn1)c(=O)n3C [compound 59]', '> 30 µM'),
  ('COc1cc2ncc3c(c2cc1-c1cnn(C)c1)n(-c1ccnn1C)c(=O)n3C [Compound Example 49]', '> 30 µM'),
  ('COc1cc2ncc3c(c2cc1-c1cnn(C)c1)n(-c1ccncc1F)c(=O)n3C [Compound Example 35]', '> 30 µM'),
  ('COc1cc2ncc3c(c2cc1-c1cnn(C)c1)n(-c1cncnc1)c(=O)n3C [Compound Example 57]', '> 30 µM'),
  ('CCn1cc(-c2cc3c(cc2OC)ncc2c3n(-c3c(C)cncc3F)c(=O)n2C)cn1 [Compound Example 38]', '> 30 µM'),
  ('COc1cc2ncc3c(c2cc1-c1cnn(C)c1)n(-c1cnn(C)c1)c(=O)n3C [Compound Example 23]', '> 30 µM'),
  ('COc1cc2ncc3c(c2cc1-c1cn[nH]c1)n(-c1csc(C)n1)c(=O)n3C [Compound Example 30]', '> 30 µM'),
  ('COc1cc2ncc3c(c2cc1-c1cnn(C)c1)n(-c1cnn(C2CCOCC2)c1)c(=O)n3C [Compound Example 55]', '> 30 µM'),
  ('COc1cc2ncc3c(c2cc1-c1cnn(C)c1)n(-c1ccncc1Cl)c(=O)n3C [compound 60]', '> 30 µM'),
  ('COc1cc2ncc3c(c2cc1-c1cn(C)nc1C)n(-c1ncc(F)cc1F)c(=O)n3C [Compound Example 11]', '> 30 µM'),
  ('COc1cc2ncc3c(c2cc1-c1cn[nH]c1)n(-c1ncccc1F)c(=O)n3C [Compound Example 7]', '> 30 µM');

---

TESTED_SYSTEM: purified human recombinant ATM (ataxia telangiectasia mutated), full length (Homo sapiens (Human), UniProt Q13315)
Sequence (Q13315 whole entry, change not shown): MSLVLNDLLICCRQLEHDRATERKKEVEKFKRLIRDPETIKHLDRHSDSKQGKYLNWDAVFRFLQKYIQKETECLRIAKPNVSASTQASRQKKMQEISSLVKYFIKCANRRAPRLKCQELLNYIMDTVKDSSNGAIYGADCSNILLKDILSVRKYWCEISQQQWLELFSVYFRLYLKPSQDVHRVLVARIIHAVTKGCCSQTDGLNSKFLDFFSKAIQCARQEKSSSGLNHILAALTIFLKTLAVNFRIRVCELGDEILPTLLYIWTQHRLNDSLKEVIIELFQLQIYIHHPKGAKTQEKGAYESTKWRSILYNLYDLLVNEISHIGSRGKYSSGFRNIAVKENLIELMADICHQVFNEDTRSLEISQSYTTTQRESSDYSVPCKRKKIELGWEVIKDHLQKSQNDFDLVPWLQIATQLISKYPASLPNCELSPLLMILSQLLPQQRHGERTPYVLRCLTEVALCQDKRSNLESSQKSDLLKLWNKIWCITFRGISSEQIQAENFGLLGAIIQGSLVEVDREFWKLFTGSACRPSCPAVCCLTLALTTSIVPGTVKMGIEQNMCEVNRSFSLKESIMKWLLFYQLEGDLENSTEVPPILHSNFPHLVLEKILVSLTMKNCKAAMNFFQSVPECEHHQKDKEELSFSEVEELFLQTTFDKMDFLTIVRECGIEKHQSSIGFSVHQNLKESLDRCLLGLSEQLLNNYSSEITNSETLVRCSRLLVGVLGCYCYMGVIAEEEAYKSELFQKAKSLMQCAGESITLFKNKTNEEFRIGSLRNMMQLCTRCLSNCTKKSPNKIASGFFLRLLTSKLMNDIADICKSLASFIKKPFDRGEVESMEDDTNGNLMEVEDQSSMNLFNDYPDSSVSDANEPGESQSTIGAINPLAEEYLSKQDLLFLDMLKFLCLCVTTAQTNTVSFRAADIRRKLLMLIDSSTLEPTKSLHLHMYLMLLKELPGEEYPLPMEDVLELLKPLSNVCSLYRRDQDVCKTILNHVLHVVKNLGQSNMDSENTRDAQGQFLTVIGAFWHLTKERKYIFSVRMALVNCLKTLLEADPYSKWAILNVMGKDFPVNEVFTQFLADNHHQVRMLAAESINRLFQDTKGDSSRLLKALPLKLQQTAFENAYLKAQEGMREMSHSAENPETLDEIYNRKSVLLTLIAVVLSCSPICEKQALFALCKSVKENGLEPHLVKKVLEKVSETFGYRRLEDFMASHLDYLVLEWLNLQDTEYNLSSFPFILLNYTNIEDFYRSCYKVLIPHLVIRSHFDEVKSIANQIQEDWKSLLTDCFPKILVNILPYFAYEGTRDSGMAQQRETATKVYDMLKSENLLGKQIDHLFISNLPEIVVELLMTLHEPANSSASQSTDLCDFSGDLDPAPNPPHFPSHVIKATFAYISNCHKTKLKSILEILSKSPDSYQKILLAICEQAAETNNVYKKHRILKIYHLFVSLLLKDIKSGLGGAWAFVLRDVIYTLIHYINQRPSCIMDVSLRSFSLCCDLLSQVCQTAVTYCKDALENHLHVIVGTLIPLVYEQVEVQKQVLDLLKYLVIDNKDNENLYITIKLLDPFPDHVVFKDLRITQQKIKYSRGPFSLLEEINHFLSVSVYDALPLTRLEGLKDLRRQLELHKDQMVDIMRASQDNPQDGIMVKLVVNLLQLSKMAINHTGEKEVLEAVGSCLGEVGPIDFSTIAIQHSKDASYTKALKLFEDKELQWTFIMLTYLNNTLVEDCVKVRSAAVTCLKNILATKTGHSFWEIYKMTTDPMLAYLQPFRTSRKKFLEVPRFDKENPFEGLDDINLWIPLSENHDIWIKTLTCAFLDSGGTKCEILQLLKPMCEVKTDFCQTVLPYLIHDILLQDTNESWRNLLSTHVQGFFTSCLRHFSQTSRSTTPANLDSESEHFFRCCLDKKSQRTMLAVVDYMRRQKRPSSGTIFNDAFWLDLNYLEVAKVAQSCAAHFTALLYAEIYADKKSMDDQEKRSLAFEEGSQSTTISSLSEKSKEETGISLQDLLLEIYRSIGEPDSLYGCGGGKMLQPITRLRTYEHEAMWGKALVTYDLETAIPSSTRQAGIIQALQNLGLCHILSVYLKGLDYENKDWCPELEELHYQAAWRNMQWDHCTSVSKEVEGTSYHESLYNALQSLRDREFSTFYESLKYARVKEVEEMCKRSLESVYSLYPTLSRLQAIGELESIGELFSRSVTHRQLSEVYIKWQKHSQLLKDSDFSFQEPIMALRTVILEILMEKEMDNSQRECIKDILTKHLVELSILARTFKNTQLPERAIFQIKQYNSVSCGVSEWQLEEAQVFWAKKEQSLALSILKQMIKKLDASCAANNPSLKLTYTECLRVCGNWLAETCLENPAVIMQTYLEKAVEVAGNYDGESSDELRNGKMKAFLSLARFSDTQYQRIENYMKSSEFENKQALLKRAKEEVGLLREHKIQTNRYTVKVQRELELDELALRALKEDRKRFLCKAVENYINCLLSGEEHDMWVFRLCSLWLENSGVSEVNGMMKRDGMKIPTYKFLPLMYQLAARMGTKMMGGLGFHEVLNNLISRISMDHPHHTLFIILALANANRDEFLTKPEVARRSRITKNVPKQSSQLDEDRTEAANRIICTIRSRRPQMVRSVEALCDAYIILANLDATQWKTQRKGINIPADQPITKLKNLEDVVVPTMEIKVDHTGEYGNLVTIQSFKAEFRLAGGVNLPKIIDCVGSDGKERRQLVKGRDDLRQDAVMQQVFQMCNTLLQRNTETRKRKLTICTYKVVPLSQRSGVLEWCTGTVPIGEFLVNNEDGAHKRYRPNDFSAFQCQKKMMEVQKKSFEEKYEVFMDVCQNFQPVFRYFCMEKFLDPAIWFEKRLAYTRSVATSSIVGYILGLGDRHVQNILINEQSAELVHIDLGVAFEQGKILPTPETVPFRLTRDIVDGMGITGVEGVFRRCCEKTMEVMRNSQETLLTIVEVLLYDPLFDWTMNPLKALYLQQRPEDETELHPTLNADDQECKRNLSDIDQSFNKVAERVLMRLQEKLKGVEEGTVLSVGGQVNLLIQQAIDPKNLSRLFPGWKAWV
METHOD_DESCRIPTION: ATM kinase assay - determination of ATM inhibition (IC50 ATM), TR-FRET
Type: biochemical
MEASUREMENT_PARAMETERS: 10 μM ATP, substrate p53
pIC50: −log10 of the molar value.
Parameter pIC50: see the listing below.
EXPERIMENTAL_READOUT: pIC50

INSERT INTO assay_data (smiles_text, result) VALUES
  ('CCn1cc(-c2cc3c(cc2OC)ncc2c3n(-c3c(F)cncc3F)c(=O)n2C)cn1', '> 9.00'),
  ('CCn1cc(-c2cc3c(cc2OC)ncc2c3n(-c3ncc(OC)cc3F)c(=O)n2C)cn1', '> 8.00'),
  ('COc1cc2ncc3c(c2cc1-c1cnn(C)c1)n(-c1ncc(OC2CNC2)cc1F)c(=O)n3C', '> 9.00'),
  ('COc1cc2ncc3c(c2cc1-c1cn(C)nn1)n(-c1ccncc1F)c(=O)n3C', '> 8.00'),
  ('CCn1cc(-c2cc3c(cc2OC)ncc2c3n(-c3ccncc3OC)c(=O)n2C)cn1', '> 8.00'),
  ('COc1cc2ncc3c(c2cc1-c1cnn(C)c1)n(-c1ccc2cc[nH]c2n1)c(=O)n3C', '> 9.00'),
  ('COc1cc2ncc3c(c2cc1-c1cnn(C)n1)n(-c1cn(C)nc1C)c(=O)n3C', '> 7.30'),
  ('COc1cc2ncc3c(c2cc1-c1cn[nH]c1)n(-c1cnn(C2CCOCC2)c1)c(=O)n3C', '> 8.00'),
  ('CCc1cncc(F)c1-n1c(=O)n(C)c2cnc3cc(OC)c(-c4cnn(C)c4)cc3c21', '> 9.00'),
  ('COc1cc2ncc3c(c2cc1-c1n[nH]cc1C)n(-c1cn(C)nc1C)c(=O)n3C', '> 7.30'),
  ('COc1cc2ncc3c(c2cc1-c1cnn(C)c1)n(-c1cnn(C2CCOCC2)c1)c(=O)n3C', '> 8.00'),
  ('COc1cnc(-n2c(=O)n(C)c3cnc4cc(OC)c(-c5cnn(C)c5)cc4c32)c(F)c1', '> 9.00'),
  ('COc1cc2ncc3c(c2cc1-c1cnn(C)n1)n(-c1ncccc1F)c(=O)n3C', '> 6.30'),
  ('CCn1cc(-c2cc3c(cc2OC)ncc2c3n(-c3cn(C)nc3C)c(=O)n2C)cn1', '> 9.00'),
  ('COc1cc2ncc3c(c2cc1-c1cnn(C)c1)n(-c1cn[nH]c1)c(=O)n3C', '> 8.00'),
  ('COc1cc2ncc3c(c2cc1-c1cn(C)nn1)n(-c1cn(C)nc1C)c(=O)n3C', '> 8.00');
